Below is a list of entries, each paired with its recorded Th-T fluorescence of Aβ42 (sheet Fig. 7a), mean of three wells value.
TARGET OR SYSTEM: Aβ42 (Homo sapiens, UniProt P05067)
Sequence (P05067 672-713): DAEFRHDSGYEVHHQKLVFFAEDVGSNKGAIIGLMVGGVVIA
ASSAY NAME: Th-T (thioflavin-T) assay of Aβ42 aggregation
Format: biochemical
TEST CONDITIONS: head suffix _20 (concentration 20); reading M77
EXPERIMENTAL ENDPOINT: Th-T fluorescence of Aβ42 (sheet Fig. 7a), mean of three wells

1) C=C1CCC2C(C)(CCC=C(C)C)C(O)CCC2(C)C1Cc1c(OC)oc(C)c(C(=O)OC)c1=O (centres unmarked); 1.953
2) C=C1CCC2C(C)(CCC=C(C)C)C(O)CCC2(C)C1Cc1c(OC)oc(CO)c(C(=O)OC)c1=O (centres unmarked); 1.059
3) C=C1CCC2C(C)(CCC=C(C)C)C(O)CCC2(C)C1Cc1c(OC)oc(CO)c(C)c1=O (centres unmarked); 2.081
4) C=C1CC[C@@H]2[C@](C)(CC[C@H]3O[C@H](C=C(C)C)C[C@@]23C)[C@@H]1Cc1c(OC)oc(CO)c(C(=O)OC)c1=O; 0.3505
5) C=C1CC[C@@H]2[C@](C)(CC[C@H]3O[C@H](C=C(C)C)C[C@@]23C)[C@@H]1Cc1c(OC)oc(CO)c(C)c1=O; 3.3972

---

ASSAY NAME: cytotoxicity in Drosophila DL1 cells
Type: cell-based
TEST CONDITIONS: Drosophila, DL1 cells (embryonic macrophage-derived), DL1 cells, 20 µM, replicate 2, relative to DMSO 1%; read-out: % viability, viability 2
Below is a list of entries, each paired with its recorded viability at 20 µM value.
EXPERIMENTAL ENDPOINT: viability at 20 µM (%)

1. C=C1CCC2C(C)(CCC=C(C)C)C(O)CCC2(C)C1Cc1c(OC)oc(CO)c(C(=O)OC)c1=O (stereo not drawn); 3.94
2. C=C1CC[C@H]2[C@]3(C)C[C@H](C=C(C)C)O[C@H]3CC[C@]2(C)[C@@H]1Cc1c(OC)oc(CO)c(C)c1=O; 5.16
3. C=C1CCC2C(C)(CCC=C(C)C)C(O)CCC2(C)C1Cc1c(O)c(C)c(C)oc1=O (stereo not drawn); 18

---

TARGET OR SYSTEM: Aβ42 (Homo sapiens, UniProt P05067)
ASSAY NAME: Th-T (thioflavin-T) assay of Aβ42 aggregation
Type: biochemical
TEST CONDITIONS: column suffix _20; measurement M20
EXPERIMENTAL ENDPOINT: Th-T fluorescence, mean of three wells (Fig. 7a)

1. C=C1CCC2C(C)(CCC=C(C)C)C(O)CCC2(C)C1Cc1c(OC)oc(CO)c(C(=O)OC)c1=O (centres unmarked) [Compound 13]; 0.1836
2. C=C1CCC2C(C)(CCC=C(C)C)C(O)CCC2(C)C1Cc1c(OC)oc(C)c(C(=O)OC)c1=O (centres unmarked) [Compound 14]; 1.16
3. C=C1CC[C@@H]2[C@](C)(CC[C@H]3O[C@H](C=C(C)C)C[C@@]23C)[C@@H]1Cc1c(OC)oc(CO)c(C)c1=O [Compound 20]; 3.22
4. C=C1CC[C@@H]2[C@](C)(CC[C@H]3O[C@H](C=C(C)C)C[C@@]23C)[C@@H]1Cc1c(OC)oc(CO)c(C(=O)OC)c1=O [Compound 21]; 0.198
5. C=C1CCC2C(C)(CCC=C(C)C)C(O)CCC2(C)C1Cc1c(OC)oc(CO)c(C)c1=O (centres unmarked) [Compound 12]; 2.543

---

ASSAY NAME: cytotoxicity in Drosophila DL1 cells
Format: cell-based
TEST CONDITIONS: Drosophila, DL1 cells (embryonic macrophage-derived), DL1 cells, 20 µM, replicate 2, relative to DMSO 1%; read-out: % viability, viability 2
EXPERIMENTAL ENDPOINT: viability at 20 µM (%)

1) C=C1CCC2C(C)(CCC=C(C)C)C(=O)CCC2(C)C1Cc1c(O)c(C)c(C)oc1=O (centres unmarked) [Compound 8]; 21.3
2) C=C1CCC2C(C)(CC(=O)C=C(C)C)C(O)CCC2(C)C1Cc1c(O)c(C)c(C)oc1=O (centres unmarked) [Compound 7]; 14.2
3) C=C1CC[C@H]2[C@]3(C)C[C@H](C=C(C)C)O[C@H]3CC[C@]2(C)[C@@H]1Cc1c(O)c(C)c(C)oc1=O [Compound 6, subglutinol B]; 6.62
4) C=C1CC[C@@H]2[C@](C)(CC[C@H]3O[C@H](C=C(C)C)C[C@@]23C)[C@@H]1Cc1c(OC)oc(CO)c(C)c1=O [Compound 20]; 24.6
5) C=C1CCC2C(C)(CCC=C(C)C)C(O)CCC2(C)C1Cc1c(OC)oc(C)c(C(=O)OC)c1=O (centres unmarked) [Compound 14]; 4.22
6) C=C1CC[C@@H]2[C@](C)(CC[C@H]3O[C@H](C=C(C)C)C[C@@]23C)[C@@H]1Cc1c(OC)oc(CO)c(C(=O)OC)c1=O [Compound 21]; 3.01
7) C=C1CC[C@H]2[C@]3(C)C[C@@H](C=C(C)C)O[C@H]3CC[C@]2(C)[C@@H]1Cc1c(O)c(C)c(C)oc1=O [Compound 5, subglutinol A]; 3.4
8) C=C1CCC2C3(C)CC(C=C(C)C)OC3CCC2(C)C1Cc1c(OC)oc(C)c(C)c1=O (centres unmarked) [Compound 23]; 8.21
9) C=C1CCC2C(C)(CCC=C(C)C)C(O)CCC2(C)C1Cc1c(OC)oc(CO)c(C)c1=O (centres unmarked) [Compound 12]; 4.39
10) C=C1CCC2C(C)(CC(=O)C=C(C)C)C(O)CCC2(C)C1Cc1c(OC)oc(CO)c(C)c1=O (centres unmarked) [Compound 19]; 22.3
11) C=C1CC[C@H]2[C@]3(C)C[C@H](C=C(C)C)O[C@H]3CC[C@]2(C)[C@@H]1Cc1c(OC)oc(C)c(C)c1=O [Compound 24]; 8.17
12) C=C1CC[C@H]2[C@]3(C)C[C@@H](C=C(C)C)O[C@H]3CC[C@]2(C)[C@@H]1Cc1c(OC)oc(CO)c(C)c1=O [Compound 17]; 19.6
13) C=C1CCC2C(C)(CC(=O)C=C(C)C)C(O)CCC2(C)C1Cc1c(OC)oc(C)c(C)c1=O (centres unmarked) [Compound 25]; 27.2
14) C=C1CC[C@@H]2[C@](C)(CC[C@H]3O[C@H](C=C(C)C)C[C@@]23C)[C@@H]1Cc1c(O)c(C)c(C)oc1=O [Compound 10, higginsianin A]; 5.81

---

TARGET OR SYSTEM: UniProt:P05067
ASSAY NAME: Th-T (thioflavin-T) assay of Aβ42 aggregation
Assay type: biochemical
TEST CONDITIONS: compound at 10; reading M52 of time course
EXPERIMENTAL ENDPOINT: Th-T fluorescence, mean of three wells

1. C=C1CC[C@@H]2[C@](C)(CC[C@H]3O[C@H](C=C(C)C)C[C@@]23C)[C@@H]1Cc1c(OC)oc(CO)c(C)c1=O; 3.467
2. C=C1CC[C@@H]2[C@](C)(CC[C@H]3O[C@H](C=C(C)C)C[C@@]23C)[C@@H]1Cc1c(OC)oc(CO)c(C(=O)OC)c1=O; 0.2782
3. C=C1CCC2C(C)(CCC=C(C)C)C(O)CCC2(C)C1Cc1c(OC)oc(CO)c(C(=O)OC)c1=O (centres unmarked); 1.537
4. C=C1CCC2C(C)(CCC=C(C)C)C(O)CCC2(C)C1Cc1c(OC)oc(CO)c(C)c1=O (centres unmarked); 3.423
5. C=C1CCC2C(C)(CCC=C(C)C)C(O)CCC2(C)C1Cc1c(OC)oc(C)c(C(=O)OC)c1=O (centres unmarked); 2.557

---

Test system: SNB-78
ASSAY NAME: cells
Parameters: species or system JFCR39 human cancer cell lines; JFCR39 panel growth inhibition, sulforhodamine B total protein after 48 h
TEST CONDITIONS: Homo sapiens, SNB-78, 48 h
EXPERIMENTAL ENDPOINT: GI50 (µM)

1. C=C1CC[C@H]2[C@]3(C)C[C@@H](C=C(C)C)O[C@H]3CC[C@]2(C)[C@@H]1Cc1c(OC)oc(CO)c(C)c1=O [Compound 17]; 14.2
2. C=C1CCC2C(C)(CCC=C(C)C)C(O)CCC2(C)C1Cc1c(OC)oc(CO)c(C(=O)OC)c1=O (stereo not shown) [Compound 13]; 17.3
3. C=C1CCC2C(C)(CCC=C(C)C)C(O)CCC2(C)C1Cc1c(OC)oc(C)c(C(=O)OC)c1=O (stereo not shown) [Compound 14]; 14.7
4. C=C1CC[C@@H]2[C@](C)(CC[C@H]3O[C@H](C=C(C)C)C[C@@]23C)[C@@H]1Cc1c(OC)oc(CO)c(C)c1=O [Compound 20]; 14
